Data origin: patent US20010031749A1

inhibition diameter values for the molecules below.
system: Staph. aureus 25768; experiment: In vitro antibacterial activity, plate test (inhibition diameter); format: cell-based; details: 10 μg, Difco Nutrient Agar, 18 hrs at 37° C.
# value in mm; strip the unit string

Below are worked cases with known answers.
Data request: Give the reported inhibition diameter for CC(O)C1C(=O)N2C(C(=O)O)=C(SCNC(=O)CN)C(C)C12 (stereo not shown) [If] (system: Staph. aureus 25768).
Data returned: 25

Data request: Give the reported inhibition diameter for CC(O)C1C(=O)N2C(C(=O)O)=C(SCOCCNC=N)C(C)C12 (stereo not shown) [Ic] (system: Staph. aureus 25768).
Data returned: 26

Data request: Give the reported inhibition diameter for CC(O)C1C(=O)N2C(C(=O)O)=C(SCOCCN)C(C)C12 (stereo not shown) [Ib] (system: Staph. aureus 25768).
Data returned: 28

More entries:
Data request: Give the reported inhibition diameter for CC(=O)NCSC1=C(C(=O)O)N2C(=O)[C@H]([C@@H](C)O)[C@H]2[C@H]1C [Ie] (system: Staph. aureus 25768).
Data returned: 27
